Values were extracted from patent US8227604B2.

The entries below come with measured Ki values attached.
- study system: UniProt P35462
- Sequence (P35462 whole entry): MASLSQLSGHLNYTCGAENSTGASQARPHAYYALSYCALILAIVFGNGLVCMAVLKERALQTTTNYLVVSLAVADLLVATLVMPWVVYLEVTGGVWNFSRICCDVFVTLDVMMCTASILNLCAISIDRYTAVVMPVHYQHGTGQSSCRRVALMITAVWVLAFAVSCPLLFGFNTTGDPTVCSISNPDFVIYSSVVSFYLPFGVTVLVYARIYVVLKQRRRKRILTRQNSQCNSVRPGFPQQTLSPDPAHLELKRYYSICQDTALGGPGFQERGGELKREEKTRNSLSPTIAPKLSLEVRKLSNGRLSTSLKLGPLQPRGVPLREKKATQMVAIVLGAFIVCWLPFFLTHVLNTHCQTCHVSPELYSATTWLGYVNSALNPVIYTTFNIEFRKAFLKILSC
- test summary: Binding affinity at cloned human D3 receptor, [3H]Spiperone (Table 5)
- Set-up: expressed in transfected cells; host or cells: CHOp-D3 cells
- condition parameters: cloned human D3, Table 5

# molecule, study system, unit name, Ki
data = [
    ("CCCN(CCc1ccc(N)cc1)CCN1CCN(c2ccccc2)CC1 [Compound 29a]", "UniProt P35462", "nM", 1150),
    ("CCCN(CCc1cccc(NS(=O)(=O)c2ccc(Cl)cc2)c1)CCN1CCN(c2ccccc2)CC1 [Compound 30b]", "UniProt P35462", "nM", 36.8),
    ("CCCN(CCc1cccc(N)c1)CCN1CCN(c2ccccc2)CC1 [Compound 29b]", "UniProt P35462", "nM", 1480),
    ("CCCN(CCc1ccc(NS(=O)(=O)c2ccc(Cl)cc2)cc1)CCN1CCN(c2ccccc2)CC1 [Compound 30a]", "UniProt P35462", "nM", 5.98),
]
